Target: EGFR-L858R/C797S (H1975-clone #8 cells) (Homo sapiens, UniProt P00533, C797S/L858R)
Construct: expressed in transfected cells; host or cells: H1975 (endogenous EGFR knocked out, clone #8)
Sequence (P00533 25-1210 C797S/L858R): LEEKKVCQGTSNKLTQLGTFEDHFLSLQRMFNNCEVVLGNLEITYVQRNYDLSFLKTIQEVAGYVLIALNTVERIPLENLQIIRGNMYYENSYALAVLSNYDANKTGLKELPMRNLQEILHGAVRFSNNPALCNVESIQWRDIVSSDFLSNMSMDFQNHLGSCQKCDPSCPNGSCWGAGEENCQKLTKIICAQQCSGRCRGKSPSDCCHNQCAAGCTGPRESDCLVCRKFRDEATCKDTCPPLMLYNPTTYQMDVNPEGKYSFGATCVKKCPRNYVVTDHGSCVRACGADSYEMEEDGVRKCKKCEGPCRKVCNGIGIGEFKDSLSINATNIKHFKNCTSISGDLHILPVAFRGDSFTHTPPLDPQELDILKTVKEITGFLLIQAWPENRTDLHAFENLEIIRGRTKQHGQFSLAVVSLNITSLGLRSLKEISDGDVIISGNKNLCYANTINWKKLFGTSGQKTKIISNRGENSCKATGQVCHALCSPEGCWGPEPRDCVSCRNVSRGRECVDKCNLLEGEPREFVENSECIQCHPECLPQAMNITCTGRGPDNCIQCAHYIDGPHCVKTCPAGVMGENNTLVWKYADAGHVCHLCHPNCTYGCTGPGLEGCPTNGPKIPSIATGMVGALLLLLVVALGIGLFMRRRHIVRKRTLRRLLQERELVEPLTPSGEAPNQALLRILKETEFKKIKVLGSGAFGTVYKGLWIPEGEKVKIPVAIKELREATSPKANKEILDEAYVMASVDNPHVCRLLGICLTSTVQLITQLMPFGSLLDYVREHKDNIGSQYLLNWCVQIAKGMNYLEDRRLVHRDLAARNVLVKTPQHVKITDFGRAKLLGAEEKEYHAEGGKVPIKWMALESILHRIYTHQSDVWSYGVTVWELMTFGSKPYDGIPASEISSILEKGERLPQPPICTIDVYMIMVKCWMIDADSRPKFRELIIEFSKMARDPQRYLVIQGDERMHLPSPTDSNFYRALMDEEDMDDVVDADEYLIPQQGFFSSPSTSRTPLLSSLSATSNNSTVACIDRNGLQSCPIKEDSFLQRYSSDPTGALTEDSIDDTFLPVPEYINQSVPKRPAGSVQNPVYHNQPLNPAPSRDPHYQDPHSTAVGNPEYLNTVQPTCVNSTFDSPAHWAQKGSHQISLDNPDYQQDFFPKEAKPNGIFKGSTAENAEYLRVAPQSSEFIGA
Test: Cell degradation of EGFR, HTRF assay, H1975-clone#8 (L858R/C797S) cells
Type: cell-based
Details: 16 h treatment, EGFR degradation
The entries below are paired with their reported DC50.
Report the figure in nM without appending any unit label.

{"columns": ["molecule", "assay target", "measured endpoint", "readout number"],
 "data": [
  ["Cc1cc2cc(n1)-c1cnn(C)c1OC[C@H]1CC[C@H](C1)CN1/C(=N/C2=O)Nc2ccc(N3CCN(C4CCN(c5ccc([C@H]6CCC(=O)NC6=O)nc5C)CC4)[C@H](C)C3)cc21 [Example 162]", "EGFR-L858R/C797S (H1975-clone #8 cells) (Homo sapiens, UniProt P00533, C797S/L858R)", "DC50", 3.14],
  ["COC[C@@H]1CN(c2ccc3c(c2)N2CC4CC[C@H](COc5c(c(C)nn5C)-c5cc(cc(C)n5)C(=O)/N=C/2N3)C4)CCN1CC1CCN(c2cc(F)c([C@H]3CCC(=O)NC3=O)c(F)c2)CC1 [Example 127]", "EGFR-L858R/C797S (H1975-clone #8 cells) (Homo sapiens, UniProt P00533, C797S/L858R)", "DC50", 6.07]
]}

Continue with the next molecule.
Form field DC50, entry Cc1cc2cc(n1)-c1c(C)nn(C)c1OC[C@H]1CCC(C1)CN1/C(=N/C2=O)Nc2ccc(N3CCC(N(C)C4CCN(c5cc(F)c([C@H]6CCC(=O)NC6=O)c(F)c5)CC4)CC3)cc21 [Example 136] : 0.152
